Measurement record for Prostaglandin G/H synthase 1 (Ovis aries, UniProt P05979); quantity recorded: pIC50.
Just the number, please; pIC50 means minus log10 of the concentration in mol/L.

Qu. Kindly indicate its recorded pIC50. Item: `Cl.Clc1ccc(-n2cc(COc3ccc(/C=N/Nc4c5c(nc6ccccc46)CCCC5)cc3)nn2)cc1`
Ans. 4.87

Qu. Kindly indicate its recorded pIC50. Item: `Brc1ccc(-n2cc(COc3ccc(/C=N/Nc4c5c(nc6ccccc46)CCCC5)cc3)nn2)cc1.Cl`
Ans. 4.86

Qu. Kindly indicate its recorded pIC50. Item: `Cc1ccc(-n2cc(COc3ccc(/C=N/Nc4c5c(nc6ccccc46)CCCC5)cc3)nn2)cc1.Cl`
Ans. 4.96

Qu. Kindly indicate its recorded pIC50. Item: `COc1ccc(-n2cc(COc3ccc(/C=N/Nc4c5c(nc6ccccc46)CCCC5)cc3)nn2)cc1.Cl`
Ans. 4.91
